What Lactic Acid Accumulation (μ mol/ml) was measured for each of the following?
Test system: rumen contents (lactic acid accumulation)
measurement_protocol: Inhibition of lactic acid accumulation, second batch culture fermentation of rumen contents with glucose
Assay type: cell-based, bovine (rumen fistulated)
conditions: Table 8; 1.25 μg/ml; 6 h, 39° C.; 0 μg/ml: 40.47
I'd appreciate it if you wrote the number followed by its unit.

Give its Lactic Acid Accumulation (μ mol/ml) value. Item: CCC(=O)OC(C(C)C(=O)O)C(C)C1OC2(CCC(C)(C3CCC(C)(C4OC(C5OC(O)(COC(=O)C6CCCCC6)C(C)CC5C)CC4C)O3)O2)CC(O)C1C (stereo not shown) [Cyclohexylcarboxylate, laidlomycin cyclohexylcarboxylate]
3.74 μ mol/ml

Give its Lactic Acid Accumulation (μ mol/ml) value. Item: CCC(=O)OC(C(C)C(=O)O)C(C)C1OC2(CCC(C)(C3CCC(C)(C4OC(C5OC(O)(COC(C)=O)C(C)CC5C)CC4C)O3)O2)CC(O)C1C (stereo not shown) [L. C2]
6.89 μ mol/ml

Give its Lactic Acid Accumulation (μ mol/ml) value. Item: CCC(=O)OC(C(C)C(=O)O)C(C)C1OC2(CCC(C)(C3CCC(C)(C4OC(C5OC(O)(COC(=O)C6CC6)C(C)CC5C)CC4C)O3)O2)CC(O)C1C (stereo not shown) [Cyclopropylcarboxylate, laidlomycin cyclopropylcarboxylate]
2.50 μ mol/ml

Give its Lactic Acid Accumulation (μ mol/ml) value. Item: CCC(=O)OC(C(C)C(=O)O)C(C)C1OC2(CCC(C)(C3CCC(C)(C4OC(C5OC(O)(COC(=O)C6CCC6)C(C)CC5C)CC4C)O3)O2)CC(O)C1C (stereo not shown) [Cyclobutylcarboxylate, laidlomycin cyclobutylcarboxylate]
3.82 μ mol/ml

Give its Lactic Acid Accumulation (μ mol/ml) value. Item: CCCCCCCCCCCCCCCCCC(=O)OCC1(O)OC(C2CC(C)C(C3(C)CCC(C4(C)CCC5(CC(O)C(C)C(C(C)C(OC(=O)CC)C(C)C(=O)O)O5)O4)O3)O2)C(C)CC1C (stereo not shown) [L. C18, laidlomycin stearate]
48.87 μ mol/ml

Give its Lactic Acid Accumulation (μ mol/ml) value. Item: CCCCC(=O)OCC1(O)OC(C2CC(C)C(C3(C)CCC(C4(C)CCC5(CC(O)C(C)C(C(C)C(OC(=O)CC)C(C)C(=O)O)O5)O4)O3)O2)C(C)CC1C (stereo not shown) [L. C5, laidlomycin pentanoate]
4.67 μ mol/ml

Give its Lactic Acid Accumulation (μ mol/ml) value. Item: CCC(=O)OC(C(C)C(=O)O)C(C)C1OC2(CCC(C)(C3CCC(C)(C4OC(C5OC(O)(COC(=O)C6CCCC6)C(C)CC5C)CC4C)O3)O2)CC(O)C1C (stereo not shown) [Cyclopentylcarboxylate, laidlomycin cyclopentylcarboxylate]
3.63 μ mol/ml

###

What Lactic Acid Accumulation (μ mol/ml) was measured for each of the following?
System: rumen contents (lactic acid accumulation)
measurement_protocol: Inhibition of lactic acid accumulation, second batch culture fermentation of rumen contents with glucose
Assay type: cell-based, bovine (rumen fistulated)
conditions: Table 8; 20 μg/ml; 6 h, 39° C.; 0 μg/ml: 40.47
Report as a plain number; the unit μ mol/ml is understood.

Give its Lactic Acid Accumulation (μ mol/ml) value. Item: CCC(=O)OC(C(C)C(=O)O)C(C)C1OC2(CCC(C)(C3CCC(C)(C4OC(C5OC(O)(COC(=O)C6CC6)C(C)CC5C)CC4C)O3)O2)CC(O)C1C (stereo not shown) [Cyclopropylcarboxylate, laidlomycin cyclopropylcarboxylate]
3.96

Give its Lactic Acid Accumulation (μ mol/ml) value. Item: CCCCC(=O)OCC1(O)OC(C2CC(C)C(C3(C)CCC(C4(C)CCC5(CC(O)C(C)C(C(C)C(OC(=O)CC)C(C)C(=O)O)O5)O4)O3)O2)C(C)CC1C (stereo not shown) [L. C5, laidlomycin pentanoate]
5.13

Give its Lactic Acid Accumulation (μ mol/ml) value. Item: CCCCCCCCCCCCCCCCCC(=O)OCC1(O)OC(C2CC(C)C(C3(C)CCC(C4(C)CCC5(CC(O)C(C)C(C(C)C(OC(=O)CC)C(C)C(=O)O)O5)O4)O3)O2)C(C)CC1C (stereo not shown) [L. C18, laidlomycin stearate]
29.93

Give its Lactic Acid Accumulation (μ mol/ml) value. Item: CCC(=O)OC(C(C)C(=O)O)C(C)C1OC2(CCC(C)(C3CCC(C)(C4OC(C5OC(O)(COC(=O)C6CCCCC6)C(C)CC5C)CC4C)O3)O2)CC(O)C1C (stereo not shown) [Cyclohexylcarboxylate, laidlomycin cyclohexylcarboxylate]
5.72
